tested on: HCC-2998 colon; test: NCI-60 one-dose screen, 48 h (100 = growth as untreated, 0 = no growth, -100 = all killed); conditions: 10 µM unless noted
About 83,000 compounds went through this panel and 20% of them were active in at least one assay; those are over-represented in the sample as a whole.
measured_attribute: growth (%)
Give a bare numeral; the unit % is implied.

INPUT: Short answer please: growth, HCC-2998 colon, entry O=[N+]([O-])c1ccc(C2CC(c3ccccc3)=Nc3ccccc3S2)cc1 (centres undefined)
OUTPUT: 103

INPUT: Lookup: growth / HCC-2998 colon / O=C(N=c1oc2ccccc2cc1-c1cc2ccccc2[nH]1)c1ccc(Cl)cc1
OUTPUT: 81.9

INPUT: Give the reported growth for Cc1ccc(S(=O)(=O)NCC[C@@H]2C[C@H]2c2cc3ccccc3s2)cc1 (system: HCC-2998 colon).
OUTPUT: 106

INPUT: Recorded growth for Cc1nn(-c2ccccc2)c(Cl)c1/C=C(/NC(=O)c1ccccc1)c1nc2ccccc2[nH]1 with HCC-2998 colon, please?
OUTPUT: 131

INPUT: Write down the reported growth of O=C1CCc2c(sc3[nH]c(=S)n(-c4ccc(OC(F)(F)F)cc4)c(=O)c23)C1 , test system: HCC-2998 colon.
OUTPUT: 28.5

INPUT: Param readout = growth; param system = HCC-2998 colon; param query = O=c1cc(-c2ccc(Cl)cc2)[nH]c2ccccc12 ; response: value
OUTPUT: 76.7

INPUT: Which measured growth belongs to CCc1c2c(nc3ccc(OC(=O)NCc4ccc(B5OC(C)(C)C(C)(C)O5)cc4)cc13)-c1cc3c(c(=O)n1C2)COC(=O)[C@]3(O)CC , tested on HCC-2998 colon?
OUTPUT: -8.14

INPUT: Requested read-out growth, target or system HCC-2998 colon, entry Cc1cc(NCCCCNc2ccnc3cc(Cl)ccc23)nc(Nc2ccc(C(=O)N3CCCC3)cc2)n1
OUTPUT: 8.57

INPUT: Form: Entry = O=c1c2cc(F)ccc2sc2c(NCCN3CCCCC3)nc3ccccc3c12 | System = HCC-2998 colon | growth = ____
OUTPUT: 13.9

* * *

tested on: IGROV1 ovarian; assay: NCI-60 one-dose screen, 48 h; details: 10 µM unless noted
Compounds without any hit were thinned out: in the full panel of roughly 83,000, 20% have a hit. Activity calls are given as the source filed them. The calls were made as follows: active = growth percent below 10; inactive = the rest.
A correct response names exactly one class from True = active, False = inactive

INPUT: Kindly provide the recorded test outcome for the following compound: Oc1ccc(CN2CCC(N3CCOCC3)CC2)c2cccnc12
OUTPUT: False

INPUT: Please share the test call associated with N#C/C(=C/C=C/c1cccc(Cl)c1)S(=O)c1ccccc1 (stereo unspecified) .
OUTPUT: True

INPUT: Look up the recorded call for O=C1CC(N2C(=O)/C(=C/C(Cl)=C\c3ccc([N+](=O)[O-])cc3)SC2=S)C(=O)N1c1ccc(O)cc1 (stereo unspecified) in this test.
OUTPUT: True

INPUT: Just curious, what result did COc1nc2c(c(=O)n1C)CN(c1ccccc1)C(=O)CN2C get here?
OUTPUT: False

INPUT: Look up the recorded call for CN(C)CCCn1c(=O)c2ccccc2c2ccccc21 in this test.
OUTPUT: False

INPUT: Could you kindly confirm the outcome this assay logged for COc1ccc(C2=NN(C(=O)c3cc(OC)c(OC)c(OC)c3)C(c3ccc(Cl)cc3)C2)cc1OC (stereo unspecified) ?
OUTPUT: False

INPUT: Tell me the assay call for Clc1cccc(Cl)c1C(Nc1nc2ccccc2s1)Nc1nc2ccccc2s1 please.
OUTPUT: True

INPUT: Short answer needed: outcome of this test for COc1ccc(C2=Nc3c(N)ncnc3NC(c3ccc4c(c3)OCO4)C2)cc1 (stereo unspecified) ?
OUTPUT: False

INPUT: Look up the recorded call for NC(=S)N/N=C/Cc1ccccc1 in this test.
OUTPUT: False

INPUT: // outcome(item) with item = CCc1ccccc1-n1c(-c2ccc(Cl)cc2)cc(-c2ccc(Cl)cc2)c(C#N)c1=O
OUTPUT: False

INPUT: Each compound tested received a call. Report the one for C[C@@H]1N=C(c2ccc3ccccc3n2)Nc2nc3ccccn3c2C1=O .
OUTPUT: False

* * *

tested on: RXF 393 renal; test: NCI-60 one-dose screen, 48 h; settings: 10 µM unless noted
Compounds without any hit were thinned out: in the full panel of roughly 83,000, 20% have a hit. The source made the active and inactive calls. How the source made its calls: active means growth percent below 10; inactive means the rest.
Response enum: class 1 for active, class 0 for inactive

INPUT: Field: outcome | Entry: COc1ccc2c(c1)C(=O)/C(=C/c1ccc(OCC(=O)Nc3nccs3)cc1)O2
OUTPUT: class 0

INPUT: GET /call?item= C=CCn1c(C)nc2cc(Nc3nc(Cl)nc4ccccc34)ccc21 returns the recorded outcome of this test.
OUTPUT: class 0

INPUT: In this assay, the call recorded for O=c1[nH]c2ccccc2n1C1CCN(CCOc2ccccc2)CC1 was what?
OUTPUT: class 0

INPUT: Any idea what this test logged for COc1nc2c(c(=O)n1C)CN(c1ccccc1)C(=O)CN2C ?
OUTPUT: class 0

INPUT: // return assay outcome for COc1cccc(-c2nc3sccn3c2-c2ccnc(NCCNS(=O)(=O)c3ccc(C(F)(F)F)cc3)c2)c1
OUTPUT: class 0

INPUT: Recorded call for O=C1CC(N2C(=O)/C(=C/C(Cl)=C\c3ccc([N+](=O)[O-])cc3)SC2=S)C(=O)N1c1ccc(O)cc1 (stereo not given) ?
OUTPUT: class 1

INPUT: Would you mind telling me which call this test gave CC1(C)CC(=O)CC2(C1)N=C(N)Nc1nc3ccccc3n12 (stereo not given) ?
OUTPUT: class 0

INPUT: Per the records of this test, what outcome belongs to COc1cc(/C=N/n2c(CN3CCOCC3)nc3ccccc3c2=O)cc(OC)c1OC ?
OUTPUT: class 0

INPUT: Hi, do you know how Cc1cccc(-c2nc(N(C)c3ccc4ncsc4c3)c3ccccc3n2)n1 came out in this test?
OUTPUT: class 0

INPUT: Which outcome was assigned to COc1cc(CCC[P+](c2ccccc2)(c2ccccc2)c2ccccc2)cc2c1OCO2 in this test?
OUTPUT: class 0

INPUT: Name the outcome recorded for N#Cc1c(-c2ccccn2)[nH]c(=S)[nH]c1=O in the assay.
OUTPUT: class 0

INPUT: Would you mind telling me which call this test gave O=C(NC(CSSCC(NC(=O)c1ccccc1)C(=O)O)C(=O)O)c1ccccc1 (stereo not given) ?
OUTPUT: class 0

INPUT: Status in this test for Cc1ccc(-c2cc(-c3cccnc3)[nH]c(=O)c2C#N)cc1 ?
OUTPUT: class 0

INPUT: What is the recorded call for this molecule in the test? COc1ccc(C(=O)Nn2c(NCC(=O)N3c4ccccc4Sc4ccccc43)nnc2-c2ccc(O)cc2)cc1
OUTPUT: class 0

INPUT: Per the assay record, what outcome was assigned to CC(=O)C(C)Cc1cc2c(cc1C)C(C)(C)CCC2(C)C (stereo not given) ?
OUTPUT: class 0

INPUT: Test call, this molecule: COc1cccc(-c2nc3sccn3c2-c2ccnc(NCCNS(=O)(=O)c3cccc(F)c3)c2)c1
OUTPUT: class 0

INPUT: Recorded test outcome, item CCOc1ccccc1-c1cc(-c2cccs2)c(C#N)c(=O)[nH]1
OUTPUT: class 0

INPUT: // return assay outcome for FC(F)(F)c1cc(Nc2ccc3cc(OCCCN4CCOCC4)ccc3n2)ccc1Cl
OUTPUT: class 1

INPUT: Please state the recorded outcome for this molecule: CCCCn1c(=O)c2c(nc3n2CCCN3CCc2ccc(OCC(=O)NCCN(CC)CC)cc2)n(CCCC)c1=O
OUTPUT: class 0

INPUT: How did this test come out for CCOP(=O)(OCC)C1CP(=O)(c2ccccc2)CC(C)=C1Cl (stereo not given) ?
OUTPUT: class 0

INPUT: In this assay, the call recorded for COc1ccc(/C=C/c2c(C(=O)/C=C/c3ccc(F)cc3)c(C)nc3ccccc23)cc1 was what?
OUTPUT: class 0

INPUT: How was O=C1Nc2ccccc2/C1=C/c1cn(C(=O)c2ccc(Cl)cc2)c2ccccc12 classified in this test?
OUTPUT: class 0

INPUT: Field: outcome | Entry: CCOC(=O)c1c2ncccc2n2c(=O)n(-c3ccccc3C)nnc12
OUTPUT: class 0

INPUT: Lab log entry: c1ccc2c(c1)nc(CN1CCOCC1)n1cc(N3CCCC3)nc21 — outcome as called in the assay?
OUTPUT: class 0

INPUT: So what was the verdict on COc1cccc(-c2nn(-c3ccccc3)cc2-c2ccnc(NCCCNC(=O)c3ccc(F)cc3)c2)c1 in this test?
OUTPUT: class 0

INPUT: I'd appreciate the recorded outcome for COc1cc(N=Nc2ccc(N)cc2)c(OC)cc1N=Nc1ccccc1.[Cl][Zn][Cl] from this test.
OUTPUT: class 0

INPUT: Which outcome was entered for the molecule CC(C)CC(NC(=O)CN(Cc1ccccc1)S(C)(=O)=O)C(=O)O (stereo not given) in this test?
OUTPUT: class 0

INPUT: What was the test verdict on O=c1c2c3c(sc2nc(N/N=C/c2ccc(Br)cc2)n1Cc1ccccc1)CCCC3 ?
OUTPUT: class 0

INPUT: What did this assay record as the result for CS(=O)(=O)c1ccc(Nc2nc(N[C@H]3CCCC[C@H]3N)nc3cc[nH]c(=O)c23)cc1 ?
OUTPUT: class 1

INPUT: Name the outcome recorded for CCOC(=O)/C=C/c1cc2cc(-c3csc4ccccc34)ccc2[nH]1 in the assay.
OUTPUT: class 0

INPUT: Outcome? OC(c1cccc(-n2ccc(C(F)(F)F)n2)c1)c1cnccc1NC1CCCCCC1 (stereo not given)
OUTPUT: class 0

INPUT: For this molecule, state the assay outcome: N#Cc1c(N)nc2c(C#N)c(NC(=O)c3ccccc3)nn2c1-c1ccccc1
OUTPUT: class 0

INPUT: In this assay, the call recorded for CC(=O)[C@@H]1CC[C@]2(COS(=O)(=O)c3ccc(C)cc3)CC[C@]3(C)[C@H](CC[C@@H]4[C@@]5(C)CCCNC(C)(C)[C@@H]5CC[C@]43C)[C@@H]12 was what?
OUTPUT: class 0

INPUT: Answer briefly: the call reported for CC/C=C\C[C@H](O)C/C=C1/C(=O)C=C[C@@H]1C/C=C\CCCCO in this assay.
OUTPUT: class 0

INPUT: How did this test come out for CN(C)CCC=C1c2ccccc2C(C)(C)c2ccccc21 ?
OUTPUT: class 0

INPUT: Tell me the recorded outcome of this test for COc1cc(OC)cc(C2CC(=O)Nc3c2c(C)nn3-c2nc3ccccc3[nH]2)c1 (stereo not given) .
OUTPUT: class 1

INPUT: # outcome recorded in this test, key = NS(=O)(=O)c1cnccc1Oc1cccc2cccnc12
OUTPUT: class 0

INPUT: Write down the call the test reported for this molecule. Item: Cc1cc(/C=C\c2ccc3ccccc3[n+]2C)c(O)c2ncccc12
OUTPUT: class 1

INPUT: Per the assay record, what outcome was assigned to COc1cc(C(=O)/C=C/c2c(C(F)(F)F)nc3sccn23)cc(OC)c1OC ?
OUTPUT: class 1

INPUT: Each molecule tested received a call. Report the one for O=c1c2cc(F)ccc2sc2c(Nc3cccnc3)nc3ccccc3c12 .
OUTPUT: class 0
